Below, each of the molecules is paired with its reported TGI value.
# System: U251 CNS
# assayExplanation: NCI tumour cell line growth inhibition, 48 h
A number alone suffices; assume µM.

> print(dat)
                                 itemsmiles  measured
1  COC(=O)c1cc2c(cc1Cl)Sc1nnc(Nc3ccccc3)n1S2(=O)=O      11.6

// query # input molecule: `O=C1c2cc3c(cc2-c2c1c1ccc(Cl)cc1c(=O)n2C[C@H](O)CO)OCO3` ; wanted: its TGI
// result 1.28

====

Below, each of the molecules is paired with its reported TGI value.
# Test system: HCC-2998 colon
# assayExplanation: NCI tumour cell line growth inhibition, 48 h
A number alone suffices; assume µM.

molecule	targetUnderTest	TGI / µM
COc1cc2nc(Cl)nc(NS(=O)(=O)c3cc4ccccc4s3)c2cc1OC	HCC-2998 colon	39.3

// query # input molecule: Cc1cnc(C(=O)NNc2nc3sc4c(c3c(=O)[nH]2)C(C)CCC4)cn1 (stereo not drawn) ; wanted: its TGI
// result 20.8

// query # input molecule: `COC(=O)C1=C(C(=O)OC)C2(c3ccccc3)OC1(c1ccccc1)c1cc3ccccc3cc12` ; wanted: its TGI
// result 3.7

// query # input molecule: C[C@H]1CC[C@@]2(OC1)O[C@H]1C[C@H]3[C@@H]4CC[C@@H]5C[C@@H](OC6OC(CO)C(O)C(O)C6OC6OC(CO)C(O)C(O)C6O)CC[C@]5(C)[C@H]4CC[C@]3(C)[C@H]1[C@@H]2C (stereo partly drawn) ; wanted: its TGI
// result 3.71
